Data origin, for the record: PubChem BioAssay (NCATS)

# EXPERIMENTAL DETAILS: qHTS of pediatric cancer cell lines to identify multiple opportunities for drug repurposing: Primary screen for DAOY cells (AID 1347090); also: nearly all actives have a fitted effect of over 55% in size
# CONDITION DETAILS: DAOY medulloblastoma viability, CellTiter-Glo luminescence, 48 h; series mostly up to 46 µM
Records with an inconclusive call do not appear. Calls of active or inactive are those of the source. Calls follow the shape of the dose curve; as a rule, active = well fitted cell-killing curve with a large enough effect; inconclusive = small, poorly fitted or top-dose-only effect; inactive = flat fitted curve, though single readings scatter.
Select the correct class. Options are 1 for active, -1 for inactive and nothing else.

The following compounds have reported results that may help.
| COMPOUND | CLASS ASSIGNMENT |
| --- | --- |
| CC(C)NC[C@@H](C(=O)N1CCN(c2ncnc3c2[C@H](C)C[C@H]3O)CC1)c1ccc(Cl)cc1 | 1 |
| CC[C@H]1OC(=O)[C@H](C)[C@@H](O[C@H]2C[C@@](C)(OC)[C@@H](O)[C@H](C)O2)[C@H](C)[C@@H](O[C@@H]2O[C@@H](C)C[C@H](N(C)C)[C@@H]2O)[C@](C)(O)C[C@@H](C)C(=O)[C@H](C)[C@@H](O)[C@]1(C)O | -1 |
| C=CC(=O)Nc1ccc2ncnc(Nc3ccc(OCc4cccc(F)c4)c(Cl)c3)c2c1 | 1 |
| COc1cccc2c1C(=O)c1c(O)c3c(c(O)c1C2=O)C[C@@](O)(C(=O)CO)C[C@H]3O[C@H]1C[C@H](N)[C@H](O)[C@H](C)O1 | 1 |
| CC(=O)OCC(=O)[C@@]1(O)CC[C@H]2[C@@H]3CCC4=CC(=O)CC[C@]4(C)[C@@H]3C(=O)C[C@@]21C | -1 |
| CC(C)C[C@H](NC(=O)CNC(=O)c1cc(Cl)ccc1Cl)B1OC(=O)CC(CC(=O)O)(C(=O)O)O1 (some centres not stated) | 1 |

Then there is this compound:
Query :: Can you look up the reported call for "COc1cc(N2CCC(C(N)=O)CC2)ccc1Nc1nc(N)c(Cl)c(Nc2ccccc2S(=O)(=O)C(C)C)n1" for me?
Result :: 1

###

# EXPERIMENTAL DETAILS: qHTS of pediatric cancer cell lines to identify multiple opportunities for drug repurposing: Primary screen for Saos-2 cells (AID 1347097); also: potency is read from the fitted curve at half-maximal effect; nearly all actives have a fitted effect of over 40% in size
# CONDITION DETAILS: Saos-2 viability, CellTiter-Glo ATP luminescence, 48 h; series mostly up to 46 µM
Inconclusive results are not listed. The source made the active and inactive calls. Calls come from the whole dose curve; as a rule, active = well fitted cell-killing curve with a large enough effect; inconclusive = small, poorly fitted or top-dose-only effect; inactive = no such curve, though single readings can be large or run the other way.
Recorded Potency values for a group of compounds are listed next.

| COMPOUND | Potency |
| --- | --- |
| Cc1ccc([N+](=O)[O-])cc1S(=O)(=O)N(C)N=Cc1cnc2ccc(Br)cn12 | 0.187 µM (active) |
| CC(C=CC(=O)NO)=C[C@@H](C)C(=O)c1ccc(N(C)C)cc1 | 0.935 µM (active) |
| COc1cc(OC)cc(-c2ccc3ncc4ccc(=O)n(-c5ccc(N6CCNCC6)c(C(F)(F)F)c5)c4c3c2)c1 | 13.2 µM (active) |

Query :: Can you look up the measured Potency of C[C@H]1O[C@H](O[C@H]2[C@H](O)[C@@H](O)[C@@H](O[C@H]3[C@H](O)[C@@H](O)C(O)O[C@H]3CO)O[C@H]2CO)[C@H](O)[C@@H](O)[C@H]1N[C@H]1C=C(CO)[C@@H](O)[C@H](O)[C@@H]1O (stereo partly drawn) for me?
Result :: 2.35 µM (active)

Query :: // repeat for "CC(=O)ON=C1C(c2c(O)[nH]c3cc(Br)ccc23)=Nc2ccccc21" and report
Result :: 11.8 µM (active)

Query :: Next record, please: "c1cc(N[C@@H]2CCNC2)nc(-c2cnc3ccc(-c4cn[nH]c4)cn23)c1"
Result :: 18.7 µM (active)

Query :: Next compound up: "O=C1NC(=O)C(=Cc2ccc3nccc(-c4ccncc4)c3c2)S1"
Result :: 0.372 µM (active)

Query :: What would you report for COc1cc(O)c2c(c1)C1OC1C[C@H](O)[C@H](O)C(=O)C=CC[C@H](C)OC2=O (stereo partly drawn) ?
Result :: 10.5 µM (active)
